# Test system: HCT-15 colon
# Method summary: NCI tumour cell line growth inhibition, 48 h
Metric: TGI

Worked examples, 4 molecules total:
Challenge: Please report the measured TGI for "NCC[PH+](c1ccccc1)c1ccccc1.NCC[PH+](c1ccccc1)c1ccccc1.[Cl-].[Pt+4]"
Response given: > 100 µM

Challenge: Return TGI (reported value) for this molecule: "COc1ccc([C@H]2c3[nH]c4ccccc4c3C[C@H]3C(=O)N(CCCCCCC(=O)NO)CC(=O)N23)cc1"
Response given: > 33.3 µM

Challenge: Name the recorded TGI of the molecule listed here: "Cc1cc(S(=O)(=O)NC2=NCc3c(F)cccc3N2)c(S)cc1Cl"
Response given: > 100 µM

Challenge: Please supply the value of reported TGI for the item "COc1cc(CNc2nc3c(NC(C)=O)cc(C(F)(F)F)cc3nc2-c2ccccc2)cc(OC)c1OC"
Response given: > 100 µM

Others:
Challenge: Recall and state the measured TGI for "CCCCCCCC(=O)OC[n+]1cccc(-c2c(COC(=O)NC(C)C)c(COC(=O)NC(C)C)c3n2CCC3)c1" .
Response given: > 100 µM

Challenge: Give the value of TGI reported for the following: "Fc1nc(Sc2ncnc3nc[nH]c23)nc(-c2c3ccccc3c3sc4ccccc4n23)n1"
Response given: > 100 µM

Challenge: Return value of TGI for input "COc1ccc(S(=O)(=O)NNS(C)(=O)=O)cc1OC" , no commentary.
Response given: > 100 µM

Challenge: Answer with reported TGI of "O=[N+]([O-])/C=C/c1cn(CCCCCCCCn2cc(/C=C/[N+](=O)[O-])c3ccccc32)c2ccccc12"
Response given: > 10 µM

Challenge: Name the recorded TGI of the item "Cc1cccc(NC(=O)CSc2nnc(-c3ccc(N=Cc4ccc(Cl)cc4)cc3)o2)c1" in your answer.
Response given: > 100 µM

Challenge: # return recorded TGI for entry "CCOC(=O)CSc1nc(-c2ccc(Cl)cc2)c(C#N)c(=O)[nH]1"
Response given: > 100 µM

Challenge: Entry "CC(=O)Nc1ccc2c(c1)[nH]c(=O)c1cc(Cl)ccc12" needs its TGI filled in; supply it.
Response given: > 100 µM

Challenge: Answer with the recorded TGI of CC1(c2ccc(Cl)cc2)c2ccccc2C(=O)N1CCCN1C(=O)c2ccccc2C1=O (configuration not stated) only.
Response given: > 100 µM
